- TARGET OF ASSAY: Adenosine kinase (Mycobacterium tuberculosis (strain CDC 1551 / Oshkosh))
- Sequence (P9WID4 whole entry): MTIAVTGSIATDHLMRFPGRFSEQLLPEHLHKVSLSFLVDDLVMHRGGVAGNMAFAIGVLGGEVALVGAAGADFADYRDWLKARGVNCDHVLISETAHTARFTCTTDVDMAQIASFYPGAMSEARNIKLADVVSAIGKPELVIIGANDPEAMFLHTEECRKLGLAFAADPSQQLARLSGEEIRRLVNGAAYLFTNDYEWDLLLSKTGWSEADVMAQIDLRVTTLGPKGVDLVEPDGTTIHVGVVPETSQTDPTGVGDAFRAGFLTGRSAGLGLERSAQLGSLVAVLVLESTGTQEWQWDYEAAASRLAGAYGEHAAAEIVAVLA
- PROTOCOL DESCRIPTION: Inhibition of Mycobacterium tuberculosis ADK using [3H]-adenosine by scintillation counting method
# Fulfilled = IC50 below 200 nM (exclusive); Not fulfilled = IC50 at/above 200 nM

| COMPOUND STRUCTURE | TARGET OF ASSAY | GROUP LABEL |
| --- | --- | --- |
| CCCCCCCCCCCCCCCCCCOP(=O)(O)OC[C@H]1O[C@@H](n2ccc3c(-c4ccsc4)ncnc32)[C@H](O)[C@@H]1O | Adenosine kinase (Mycobacterium tuberculosis (strain CDC 1551 / Oshkosh)) | Not fulfilled |
| OCc1ncnc2c1ccn2[C@@H]1O[C@H](CO)[C@@H](O)[C@H]1O | Adenosine kinase (Mycobacterium tuberculosis (strain CDC 1551 / Oshkosh)) | Not fulfilled |
| OC[C@H]1O[C@@H](n2ccc3c(-c4cccc5c4sc4ccccc45)ncnc32)[C@H](O)[C@@H]1O | Adenosine kinase (Mycobacterium tuberculosis (strain CDC 1551 / Oshkosh)) | Fulfilled |
| OC[C@H]1O[C@@H](n2ccc3c(-c4cc[nH]c4)ncnc32)[C@H](O)[C@@H]1O | Adenosine kinase (Mycobacterium tuberculosis (strain CDC 1551 / Oshkosh)) | Not fulfilled |
| OC[C@H]1O[C@@H](n2ccc3c(-c4ccc[nH]4)ncnc32)[C@H](O)[C@@H]1O | Adenosine kinase (Mycobacterium tuberculosis (strain CDC 1551 / Oshkosh)) | Fulfilled |

====

pIC50: −log10 of the molar value.
Assay read-out pIC50; system under study: Adenosine kinase (Homo sapiens, UniProt P55263).

| COMPOUND STRUCTURE | pIC50 |
| --- | --- |
| OC[C@H]1O[C@@H](n2cc(F)c3c(-c4ccco4)ncnc32)[C@H](O)[C@@H]1O | 5.89 |
| CCCCCCCCCCCCCCCCCCOP(=O)(O)OC[C@H]1O[C@@H](n2ccc3c(-c4ccsc4)ncnc32)[C@H](O)[C@@H]1O | 5.20 |
| OC[C@H]1O[C@@H](n2cc(F)c3c(-c4cc[nH]c4)ncnc32)[C@H](O)[C@@H]1O | < 5.00 |
| OC[C@H]1O[C@@H](n2cc(F)c3c(-c4ccccc4)ncnc32)[C@H](O)[C@@H]1O | < 5.00 |
| OC[C@H]1O[C@@H](n2ccc3c(Cc4ccccc4)ncnc32)[C@H](O)[C@@H]1O | < 4.70 |
| OC[C@H]1O[C@@H](n2cc(F)c3c(-c4ccsc4)ncnc32)[C@H](O)[C@@H]1O | < 5.00 |

====

- TARGET OF ASSAY: Adenosine kinase (Homo sapiens, UniProt P55263)
- PROTOCOL DESCRIPTION: Activity of human ADK assessed as compound conversion to 5'-phosphate form incubated at 37 degC for 20 mins by HPLC method
- Design: concentration or dose not given beside the values
- Sequence (P55263 2-362 limits assumed): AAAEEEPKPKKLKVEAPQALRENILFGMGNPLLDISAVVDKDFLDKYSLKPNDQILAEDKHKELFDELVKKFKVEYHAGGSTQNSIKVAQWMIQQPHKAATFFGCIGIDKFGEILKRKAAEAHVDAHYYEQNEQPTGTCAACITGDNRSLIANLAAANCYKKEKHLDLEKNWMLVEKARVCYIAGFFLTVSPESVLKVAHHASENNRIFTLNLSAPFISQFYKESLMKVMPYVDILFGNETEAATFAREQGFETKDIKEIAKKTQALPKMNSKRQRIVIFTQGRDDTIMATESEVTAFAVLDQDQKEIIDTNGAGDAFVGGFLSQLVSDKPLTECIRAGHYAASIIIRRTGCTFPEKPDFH

| COMPOUND STRUCTURE | Activity [%] |
| --- | --- |
| OC[C@H]1O[C@@H](n2cc(Cl)c3c(-c4ccccc4)ncnc32)[C@H](O)[C@@H]1O | 29 |
| OC[C@H]1O[C@@H](n2ccc3c(-c4ccc[se]4)ncnc32)[C@H](O)[C@@H]1O | 43 |
| OC[C@H]1O[C@@H](n2cc(F)c3c(-c4nccs4)ncnc32)[C@H](O)[C@@H]1O | 75 |
| OC[C@H]1O[C@@H](n2ccc3c(-c4cn[nH]c4)ncnc32)[C@H](O)[C@@H]1O | 7 |
| OC[C@H]1O[C@@H](n2cc(F)c3c(-c4cc[nH]c4)ncnc32)[C@H](O)[C@@H]1O | 97 |
| OC[C@H]1O[C@@H](n2cc(Cl)c3c(-c4ccoc4)ncnc32)[C@H](O)[C@@H]1O | 100 |
| Cc1ncnc2c1ccn2[C@@H]1O[C@H](CO)[C@@H](O)[C@H]1O | 54 |
| OC[C@H]1O[C@@H](n2ccc3c(-c4ccc[nH]4)ncnc32)[C@H](O)[C@@H]1O | 40 |
| OC[C@H]1O[C@@H](n2cc(F)c3c(-c4ccco4)ncnc32)[C@H](O)[C@@H]1O | 50 |
